Test system: CCRIS mutagenicity, Ames/micronucleus/aberration tests
assay name: CCRIS mutagenicity studies
condition description: Test System: AMES SALMONELLA TYPHIMURIUM; Strain/Indicator: TA1535; Metabolic Activation: HAMSTER, LIVER, S-9, AROCLOR 1254 (10%); Method: PREINCUBATION
Active and inactive are the calls of the source. The rule behind the calls is not given here.
Allowed answers: label 1 = active, label 0 = inactive

Worked examples, 3 compounds total:
Please state the recorded outcome for this compound: Cc1ccc(O)c(N)c1
label 0

Returns: the outcome recorded for COc1ccc([N+](=O)[O-])cc1N=Nc1c(O)c(C(=O)Nc2cccc([N+](=O)[O-])c2)cc2ccccc12 in this assay.
label 0

Recorded call for Oc1ccc(Cl)cc1Cc1ccccc1 ?
label 0

New cases:
Could you please tell me the result logged for NC=O in this assay?
label 0

###

System: CCRIS mutagenicity, Ames/micronucleus/aberration tests
assay name: CCRIS mutagenicity studies
condition description: Test System: AMES SALMONELLA TYPHIMURIUM; Strain/Indicator: TA1538; Metabolic Activation: HAMSTER, LIVER, S-9, AROCLOR 1254 (10%); Method: STANDARD PLATE
Calls of active or inactive are those of the source. How the calls were made is not given here.
endpoint: mutagenic call

Some solved entries appear below for comparison.
Print CCRIS mutagenicity, Ames/micronucleus/aberration tests mutagenic call for O=C1c2ccc3nc(-c4ccccc4)sc3c2C(=O)c2ccc3nc(-c4ccccc4)sc3c21 .
inactive; negative

Check CCRIS mutagenicity, Ames/micronucleus/aberration tests data and give mutagenic call for CC(O)CN1CC(C)OC1=O (stereo unspecified) .
inactive; negative

Fill: mutagenic call (CCRIS mutagenicity, Ames/micronucleus/aberration tests) for this molecule O=C([O-])c1ccc2ccccc2c1.[Mn+2].[O-]C(O)c1ccc2ccccc2c1
inactive; negative

Recall the reported mutagenic call of C=C[Si](C)(C)N[Si](C)(C)C=C when tested on CCRIS mutagenicity, Ames/micronucleus/aberration tests.
inactive; negative

Return reported mutagenic call for target or system CCRIS mutagenicity, Ames/micronucleus/aberration tests, item C=C[Si](C)(C)CCl .
inactive; negative

# next molecule below
Tell me mutagenic call of N#Cc1cc(Br)c(O)c(Br)c1 when tested on CCRIS mutagenicity, Ames/micronucleus/aberration tests.
inactive; negative

###

Test system: CCRIS mutagenicity, Ames/micronucleus/aberration tests
assay name: CCRIS mutagenicity studies
condition description: Test System: AMES SALMONELLA TYPHIMURIUM; Strain/Indicator: TA98; Metabolic Activation: RAT, LIVER, S-9, AROCLOR 1254; Method: STANDARD PLATE
Calls of active or inactive are those of the source. How the calls were made is not given here.
Thanks in advance; please answer with one of these: Yes (active), No (inactive)

Worked examples, 3 compounds total:
Short answer needed: outcome of this test for CC(=O)N(O)c1ccc([N+](=O)[O-])cc1 ?
Yes

Identify the outcome logged in this assay for the compound shown: CC(=O)O[C@]1(C(C)=O)CC[C@H]2[C@@H]3C4OC4(Cl)C4=CC(=O)[C@@H]5C[C@@H]5[C@]4(C)[C@H]3CC[C@@]21C (stereo not given in full)
No

Assay outcome for O=C(C(=O)c1ccccc1)c1ccccc1 : what was it?
No

New cases:
Please share the test call associated with O=C1Nc2ccc(Cl)cc2C(c2ccccc2)=NC1O (stereo not given) .
No

Outcome logged for CC1(S(=O)(=O)O)CC(=O)c2ccccc2C1=O (stereo not given) (tested in a mixture with another compound) in this assay:
Yes

Data provenance is PubChem BioAssay AID1259407.
